// provenance: ChEMBL document CHEMBL1121610

Please respond with reported Dose range for every item in the list.
- Test system: P388
- Test description: Antileukemic activity against P-388 leukemia cells was measured at given dose range
- Format: functional, Mus musculus
# output: number + unit

Worked examples, 6 compounds total:
[
  {
    "Compound": "CCC1(O)C(=O)OCc2c1cc1n(c2=O)Cc2cc3ccccc3nc2-1 (stereo not given)",
    "Dose range": "16 mg/kg"
  },
  {
    "Compound": "CCN(CC)CCOc1ccc2nc3c(cc2c1)Cn1c-3cc2c(c1=O)COC(=O)[C@]2(O)CC.Cl",
    "Dose range": "32 mg/kg"
  },
  {
    "Compound": "CCC1(O)C(=O)OCc2c1cc1n(c2=O)Cc2cc3cc4ccccc4cc3nc2-1 (stereo not given)",
    "Dose range": "32 mg/kg"
  },
  {
    "Compound": "CC[C@@]1(O)C(=O)OCc2c1cc1n(c2=O)Cc2cc3ccccc3nc2-1",
    "Dose range": "8 mg/kg"
  },
  {
    "Compound": "COCCC1(O)C(=O)OCc2c1cc1n(c2=O)Cc2cc3ccccc3nc2-1 (stereo not given)",
    "Dose range": "8 mg/kg"
  },
  {
    "Compound": "CC[C@@]1(O)C(=O)OCc2c1cc1n(c2=O)Cc2cc3cc(O)ccc3nc2-1 [HYDROXYCAMPTOTHECIN]",
    "Dose range": "8 mg/kg"
  }
]

Provide Dose range values for the following items, in order.
1. CC[C@@]1(O)C(=O)OCc2c1cc1n(c2=O)Cc2cc3cc(OC)ccc3nc2-1
2. CC[C@@](O)(C(=O)[O-])c1cc2n(c(=O)c1CO)Cc1cc3ccccc3nc1-2.[Na+]
3. CC[C@@]1(O)C(=O)OCc2c1cc1n(c2=O)Cc2cc3cc(OCC(=O)[O-])ccc3nc2-1.[Na+]
4. CCCC1(O)C(=O)OCc2c1cc1n(c2=O)Cc2cc3cccnc3nc2-1 (stereo not given)

1: 4 mg/kg; 2: 8 mg/kg; 3: 32 mg/kg; 4: 32 mg/kg

* * *

- Tested on: P388
- Test description: This is the dose at which optimal activity was observed against P-388 leukemia cells
- Assay type: functional, Mus musculus
Please respond with reported Dose for every item in the list.
One number for each entry, in mg/kg.

Worked examples, 5 molecules total:
[
  {
    "Molecule": "CC[C@@]1(O)C(=O)OCc2c1cc1n(c2=O)Cc2cc3cc(OC)ccc3nc2-1",
    "Dose (mg/kg)": 0.5
  },
  {
    "Molecule": "CC[C@@](O)(C(=O)[O-])c1cc2n(c(=O)c1CO)Cc1cc3ccccc3nc1-2.[Na+]",
    "Dose (mg/kg)": 40
  },
  {
    "Molecule": "CCC1(O)C(=O)OCc2c1cc1n(c2=O)Cc2cc3cc4ccccc4cc3nc2-1 (centres undefined)",
    "Dose (mg/kg)": 16
  },
  {
    "Molecule": "CCCC1(O)C(=O)OCc2c1cc1n(c2=O)Cc2cc3cccnc3nc2-1 (centres undefined)",
    "Dose (mg/kg)": 32
  },
  {
    "Molecule": "CC[C@@]1(O)C(=O)OCc2c1cc1n(c2=O)Cc2cc3cc(O)ccc3nc2-1 [HYDROXYCAMPTOTHECIN]",
    "Dose (mg/kg)": 4
  }
]

Provide Dose values for the following items, in order.
1. CCC1(O)C(=O)OCc2c1cc1n(c2=O)Cc2cc3ccccc3nc2-1 (centres undefined)
2. CC[C@@]1(O)C(=O)OCc2c1cc1n(c2=O)Cc2cc3ccccc3nc2-1 [CAMPTOTHECIN]
3. COCCC1(O)C(=O)OCc2c1cc1n(c2=O)Cc2cc3ccccc3nc2-1 (centres undefined)
4. CCN(CC)CCOc1ccc2nc3c(cc2c1)Cn1c-3cc2c(c1=O)COC(=O)[C@]2(O)CC.Cl

8
4
4
32
